test: LD50 in the mouse, iv; details: in vivo
READOUT_NAME: LD50 (mg/kg)
The answer is to be given in mg/kg; state only the numeric part.

Per the records, this compound ( CN1C[C@H](CNC(=O)OCc2ccccc2)C[C@@H]2c3cccc4c3c(cn4C)C[C@H]21 [Methergoline, methergoline, reference compound] ) has LD50 equal to 21.2

Per the records, this compound ( CN1C[C@H](CNS(=O)(=O)N2CCCCC2)C=C2c3cccc4[nH]cc(c34)C[C@H]21 ) has LD50 equal to 45

Per the records, this compound ( CC(C)[C@@]1(NC(=O)[C@@H]2C[C@@H]3c4cccc5[nH]cc(c45)C[C@H]3N(C)C2)O[C@@]2(O)[C@@H]3CCCN3C(=O)[C@H](Cc3ccccc3)N2C1=O [Dihydroergocristine methansulfonate, dihydroergocristine, reference compound] ) has LD50 equal to 70

Per the records, this compound ( CN1C[C@H](CNS(=O)(=O)N2CCOCC2)C[C@@H]2c3cccc4[nH]cc(c34)C[C@H]21 ) has LD50 equal to 51

---

assay: LD50 in the mouse, iv; conditions: in vivo
READOUT_NAME: LD50 (mg/kg)
The answer is to be given in mg/kg; state only the numeric part.

Per the records, this molecule ( CN1C[C@H](CNS(=O)(=O)N2CCCCC2)C=C2c3cccc4c3c(cn4C)C[C@H]21 ) has LD50 equal to 20

Per the records, this molecule ( CN1C[C@H](CNS(=O)(=O)N2CCCC2)C=C2c3cccc4c3c(cn4C)C[C@H]21 ) has LD50 equal to 22.3

Per the records, this molecule ( CN1C[C@H](CNS(=O)(=O)N2CCCCCC2)C=C2c3cccc4[nH]cc(c34)C[C@H]21 ) has LD50 equal to 50.2

Per the records, this molecule ( CN1C[C@H](CNS(=O)(=O)N(C)C)C[C@@H]2c3cccc4[nH]cc(c34)C[C@H]21 ) has LD50 equal to 22.5

Per the records, this molecule ( COc1ccc(Cc2nccc3cc(OC)c(OC)cc23)cc1OC [Papaverin, papaverine, reference compound] ) has LD50 equal to 38

Per the records, this molecule ( CN1C[C@H](CNS(=O)(=O)N2CCOCC2)C=C2c3cccc4[nH]cc(c34)C[C@H]21 ) has LD50 equal to 34.5

# credit: patent US4176182A
